The measured values listed here are drawn from patent US12441726B2.

- Target or test system: BRG-1 (Homo sapiens, UniProt P51532)
- Sequence (P51532 whole entry): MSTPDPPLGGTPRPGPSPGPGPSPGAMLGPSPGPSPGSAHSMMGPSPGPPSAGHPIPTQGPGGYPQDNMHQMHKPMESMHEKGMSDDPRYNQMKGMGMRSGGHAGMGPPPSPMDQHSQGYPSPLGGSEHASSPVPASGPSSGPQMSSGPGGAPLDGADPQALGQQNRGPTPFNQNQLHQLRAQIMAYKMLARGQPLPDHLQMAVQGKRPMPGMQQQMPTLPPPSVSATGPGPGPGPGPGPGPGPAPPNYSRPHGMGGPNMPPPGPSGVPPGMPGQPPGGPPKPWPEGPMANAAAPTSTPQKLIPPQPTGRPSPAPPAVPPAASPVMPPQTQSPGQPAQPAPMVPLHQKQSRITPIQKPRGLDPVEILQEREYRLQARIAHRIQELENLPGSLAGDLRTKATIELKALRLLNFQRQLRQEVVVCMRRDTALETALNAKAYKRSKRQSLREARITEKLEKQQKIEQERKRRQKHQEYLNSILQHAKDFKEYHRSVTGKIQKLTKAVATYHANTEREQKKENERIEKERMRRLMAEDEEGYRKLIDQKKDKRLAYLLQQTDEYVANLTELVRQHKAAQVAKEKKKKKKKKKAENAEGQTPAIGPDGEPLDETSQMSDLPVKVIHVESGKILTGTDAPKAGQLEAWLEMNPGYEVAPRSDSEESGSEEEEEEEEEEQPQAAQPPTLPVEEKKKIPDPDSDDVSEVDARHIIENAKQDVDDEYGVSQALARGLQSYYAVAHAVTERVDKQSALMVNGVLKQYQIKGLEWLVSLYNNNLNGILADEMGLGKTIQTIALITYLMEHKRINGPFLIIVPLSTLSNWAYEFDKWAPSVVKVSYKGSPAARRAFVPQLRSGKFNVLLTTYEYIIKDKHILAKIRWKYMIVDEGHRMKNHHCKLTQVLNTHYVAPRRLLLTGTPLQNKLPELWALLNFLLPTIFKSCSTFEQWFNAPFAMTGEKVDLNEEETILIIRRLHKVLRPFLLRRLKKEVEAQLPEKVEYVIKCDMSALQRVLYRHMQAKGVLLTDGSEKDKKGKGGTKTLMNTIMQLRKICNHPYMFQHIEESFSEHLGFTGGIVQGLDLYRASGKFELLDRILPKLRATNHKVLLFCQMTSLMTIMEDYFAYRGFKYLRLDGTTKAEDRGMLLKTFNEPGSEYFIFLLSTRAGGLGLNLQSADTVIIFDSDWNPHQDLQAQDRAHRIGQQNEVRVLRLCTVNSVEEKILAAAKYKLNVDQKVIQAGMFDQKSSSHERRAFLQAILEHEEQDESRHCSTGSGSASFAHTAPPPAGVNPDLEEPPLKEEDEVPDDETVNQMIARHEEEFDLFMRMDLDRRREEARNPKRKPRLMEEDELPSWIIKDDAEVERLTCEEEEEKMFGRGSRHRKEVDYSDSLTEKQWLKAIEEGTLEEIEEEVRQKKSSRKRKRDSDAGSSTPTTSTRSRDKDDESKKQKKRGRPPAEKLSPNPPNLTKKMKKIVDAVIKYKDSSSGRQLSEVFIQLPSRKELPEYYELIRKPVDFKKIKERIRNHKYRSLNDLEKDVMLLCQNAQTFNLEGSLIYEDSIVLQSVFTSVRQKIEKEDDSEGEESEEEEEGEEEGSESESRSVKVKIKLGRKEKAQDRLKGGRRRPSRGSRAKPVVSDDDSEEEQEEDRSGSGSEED
- Assay overview: ATPase catalytic activity assay (ADP-Glo), BRG-1
pIC50: −log10 of the molar value.
Observed property: pIC50

# pIC50 of C[C@@]1(C#N)COCc2ccc(C(=O)NCc3cc(C4CCN(c5cccc(C(F)F)n5)C4)ccn3)cc21 (stereo partly shown) [Compound 69] = 6.00 to 6.30

Given item C[C@@]1(C#N)COCc2ccc(C(=O)NCc3cc4nc(-c5ccnc(N6CC7(COC7)C6)n5)ccc4cn3)cc21 [Compound 403] , the value recorded as its pIC50 is 6.30 to 7.00

Lab note: measured pIC50 of C[C@@]1(C#N)COCc2ccc(C(=O)NCc3cc4nc(-c5cncc(N6CCC6)c5)ccc4cn3)cc21 [Compound 441] was 6.00 to 6.30

Form: compound = O=C(NCc1cc2nc(-c3cncc(C4CC4)n3)ccc2cn1)c1cnc2c(c1)C(O)(C(F)F)COC2 (stereo not shown) [Compound 246] ; pIC50 = < 6.00

The recorded pIC50 for entry C[C@@]1(C#N)COCc2ccc(C(=O)NCc3cc(OCc4ccccc4)ccn3)cc21 [Compound 6] equals < 6.00

Entry CN(C)c1nccc(-c2ccc3cnc(CNC(=O)c4ccc5c(c4)[C@](C)(C#N)COC5)cc3n2)n1 [Compound 424] ; pIC50 = > 7.00

Item: C[C@@]1(F)COCc2ncc(C(=O)NCc3cc4nc(-c5cncc(C6CC6)n5)ccc4cn3)cc21 [Compound 301] | pIC50: 6.30 to 7.00

###

- Target or test system: BRM (Homo sapiens)
- Sequence (P51531 whole entry): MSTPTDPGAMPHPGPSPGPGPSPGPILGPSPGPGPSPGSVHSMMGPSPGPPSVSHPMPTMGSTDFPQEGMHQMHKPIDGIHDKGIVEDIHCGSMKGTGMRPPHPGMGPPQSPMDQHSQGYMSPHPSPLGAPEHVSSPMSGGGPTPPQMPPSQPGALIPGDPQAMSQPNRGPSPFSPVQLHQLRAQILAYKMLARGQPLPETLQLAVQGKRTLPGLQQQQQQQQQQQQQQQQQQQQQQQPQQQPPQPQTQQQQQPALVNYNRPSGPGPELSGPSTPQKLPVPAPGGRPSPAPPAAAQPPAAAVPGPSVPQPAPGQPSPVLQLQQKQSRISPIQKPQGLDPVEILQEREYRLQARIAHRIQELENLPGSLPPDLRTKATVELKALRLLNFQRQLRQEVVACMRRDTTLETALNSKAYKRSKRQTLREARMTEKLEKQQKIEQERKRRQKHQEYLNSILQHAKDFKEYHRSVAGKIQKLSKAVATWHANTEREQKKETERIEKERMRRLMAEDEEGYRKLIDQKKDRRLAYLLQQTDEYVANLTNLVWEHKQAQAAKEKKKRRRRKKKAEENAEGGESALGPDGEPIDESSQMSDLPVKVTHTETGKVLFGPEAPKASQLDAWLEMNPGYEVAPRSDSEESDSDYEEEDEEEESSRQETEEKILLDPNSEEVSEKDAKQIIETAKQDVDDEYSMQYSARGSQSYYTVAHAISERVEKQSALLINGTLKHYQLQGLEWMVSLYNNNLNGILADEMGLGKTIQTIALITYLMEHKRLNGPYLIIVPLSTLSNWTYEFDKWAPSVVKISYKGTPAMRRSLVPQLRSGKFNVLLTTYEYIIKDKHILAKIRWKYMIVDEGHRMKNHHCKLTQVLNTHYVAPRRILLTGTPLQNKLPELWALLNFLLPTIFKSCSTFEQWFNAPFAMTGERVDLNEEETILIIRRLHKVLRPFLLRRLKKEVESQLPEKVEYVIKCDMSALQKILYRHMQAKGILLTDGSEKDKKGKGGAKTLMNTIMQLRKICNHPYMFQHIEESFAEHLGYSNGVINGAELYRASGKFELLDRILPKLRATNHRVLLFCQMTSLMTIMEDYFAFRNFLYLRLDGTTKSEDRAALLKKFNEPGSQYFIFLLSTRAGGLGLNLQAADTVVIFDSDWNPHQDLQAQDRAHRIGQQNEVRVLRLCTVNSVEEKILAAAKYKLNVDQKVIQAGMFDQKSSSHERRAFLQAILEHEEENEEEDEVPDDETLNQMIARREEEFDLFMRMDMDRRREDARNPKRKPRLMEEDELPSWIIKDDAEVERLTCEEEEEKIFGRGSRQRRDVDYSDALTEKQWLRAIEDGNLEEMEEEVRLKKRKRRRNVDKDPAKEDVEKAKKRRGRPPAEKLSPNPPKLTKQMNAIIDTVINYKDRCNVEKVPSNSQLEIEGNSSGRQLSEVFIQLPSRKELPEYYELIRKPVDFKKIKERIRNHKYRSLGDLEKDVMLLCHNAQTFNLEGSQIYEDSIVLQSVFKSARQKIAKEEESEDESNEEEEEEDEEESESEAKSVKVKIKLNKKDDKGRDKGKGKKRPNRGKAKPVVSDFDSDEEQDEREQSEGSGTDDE
- Assay overview: ATPase catalytic activity assay (ADP-Glo), BRM
- Measurement context: BRM ATPase: IC50 (uM), 30 nM BRM, 400 μM ATP
What IC50 was measured for each of the following?

Sample C[C@@]1(F)COCc2ncc(C(=O)NCc3cc4nc(-c5ccnc(N6CCC6)n5)cnc4cn3)cc21 [Compound 183] ; IC50 observed: < 0.1 µM

The value of IC50 measured for the compound C[C@@]1(C#N)COCc2c(F)cc(C(=O)NCc3cc4cc(-c5cncc(N6CCC6)n5)ccc4cn3)cc21 [Compound 270] turned out to be < 0.1 µM

Looking up C[C@@]1(C#N)COCc2ccc(C(=O)NCc3cc4nc(-c5cncc(N6CCCC6)n5)ccc4cn3)cc21 [Compound 415] , I see its IC50 listed as < 0.1 µM

The recorded IC50 for entry C[C@@]1(C#N)COCc2ccc(C(=O)NCc3cc4nc(-c5ccnc(N6CC7CC7C6)n5)ccc4cn3)cc21 (stereo partly shown) [Compound 321] equals < 0.1 µM

The reported IC50 of the compound O=C(NCc1cc2nc(-c3ccccc3)ccc2cn1)c1ccc2c(c1)[C@@](F)(C(F)F)COC2 [Compound 525] was 0.1 to 0.5 µM

Documented IC50 of C[C@@]1(C#N)COCc2ccc(C(=O)NCc3cc4nc(-c5cnc(N6CCC6)cn5)ccc4cn3)cc21 [Compound 414] : 0.1 to 0.5 µM

IC50 measured on CNC(=O)c1cccc(-c2ccc3cnc(CNC(=O)c4ccc5c(c4)[C@](C)(C#N)COC5)cc3n2)c1F [Compound 460] = 0.1 to 0.5 µM

###

- Target or test system: BRG-1 (Homo sapiens)
- Assay overview: ATPase catalytic activity assay (ADP-Glo), BRG-1
Please provide measured IC50 for the entries that follow.

Lab note: molecule C[C@@]1(C#N)COCc2ccc(C(=O)NCc3cc4c(cn3)CCN(c3ccnc(N5CCCC5)n3)C4)cc21 tested on BRG-1 (Homo sapiens); recorded IC50 was 500 to 1000 nM

So the reported IC50 for COc1cccc([C@H]2C[C@H](c3ccnc(CNC(=O)c4ccc5c(c4)[C@](C)(C#N)COC5)c3)C2)c1 , on BRG-1 (Homo sapiens), turned out to be 100 to 500 nM

Form field IC50 for item C[C@@]1(C#N)COCc2ccc(C(=O)NCc3cc4c(cn3)CCN(c3cccc(C(F)F)n3)C4)cc21 on BRG-1 (Homo sapiens): > 1000 nM

Kindly note: BRG-1 (Homo sapiens), C[C@@]1(C#N)COCc2ccc(C(=O)NCc3cc4nc(-c5ccncc5)ccc4cn3)cc21 , IC50 value reported: 500 to 1000 nM

Item: [2H]C1([2H])OC[C@@](C)(F)c2cc(C(=O)NCc3cc4nc(-c5cncc(C6CC6)n5)ccc4cn3)cnc21 | System: BRG-1 (Homo sapiens) | IC50: 500 to 1000 nM

C[C@@]1(C#N)COCc2ccc(C(=O)NCc3cc4nc(-n5ccc(N6CCC6)n5)ccc4cn3)cc21 on BRG-1 (Homo sapiens) gives IC50 = 500 to 1000 nM

Measured IC50 for this entry C[C@@]1(C#N)COCc2ccc(C(=O)NCc3cc4nc(-c5cccc6c5ccn6CCO)ccc4cn3)cc21 on BRG-1 (Homo sapiens): 100 to 500 nM

###

- Target or test system: BRM (Homo sapiens)
- Assay overview: ATPase catalytic activity assay (ADP-Glo), BRM
- Measurement context: 30 nM BRM, 400 μM ATP
Could you please report measured BRM Max % Inhibition for the items listed next?
The figure you give is taken to be in %; do not add the unit.

Measured BRM Max % Inhibition of C[C@@]1(F)COCc2ncc(C(=O)NCc3cc4nc(-c5cncc(N6CCC6)n5)ccc4cn3)cc21 : 92

The molecule listed as C[C@@]1(F)COCc2ccc(C(=O)NCc3cc4nc(-c5cccc(N6CCCC6=O)n5)ccc4nn3)cc21 shows BRM Max % Inhibition equal to 101

# BRM Max % Inhibition of C[C@@]1(C#N)COCc2ncc(C(=O)NCc3cc4nc(-c5cccc(C6CC6)n5)ccc4cn3)cc21 = 98

Note to self: BRM Max % Inhibition recorded for Cc1cn(C)c2cccc(-c3ccc4cnc(CNC(=O)c5ccc6c(c5)[C@](C)(C#N)COC6)cc4n3)c12 was 94

###

Please go through the items and note down their pIC50.
- Target or test system: BRG-1 (Homo sapiens)
- Assay overview: ATPase catalytic activity assay (ADP-Glo), BRG-1
pIC50: −log10 of the molar value.

Just so you know, measured pIC50 for Cn1cccc(-c2ccc3cnc(CNC(=O)c4ccc5c(c4)[C@](C)(C#N)COC5)cc3n2)c1=O came out at < 6.00

Consider COCCN1CCN(c2cccc(-c3ccc4cnc(CNC(=O)c5ccc6c(c5)[C@](C)(C#N)COC6)cc4n3)n2)CC1 . Its measured pIC50 is 6.00 to 6.30

compound C[C@@]1(C#N)COCc2ccc(C(=O)NCc3cc4nc(-c5ccnc(N6CC7CC6C7)n5)ccc4cn3)cc21 , pIC50 observed: 6.30 to 7.00

Noted for C[C@@]1(C#N)COCc2ccc(C(=O)NCc3cc4nc(-c5ccc(C(F)F)nc5)ccc4cn3)cc21 : its pIC50 reads 6.00 to 6.30

The compound listed as C[C@@]1(C#N)COCc2ccc(C(=O)NCc3cc(N4CCc5cc(C(F)F)ccc5C4)ccn3)cc21 has a reported pIC50 of 6.00 to 6.30

// recorded pIC50 for C[C@@]1(C#N)COCc2ccc(C(=O)NCc3cc4nc(-c5cnccn5)ccc4cn3)cc21 : 6.00 to 6.30

The reported value for C[C@@]1(C#N)COCc2ccc(C(=O)NCc3cc4nc(-n5cccc(N6CCC6)c5=O)ccc4cn3)cc21 in terms of pIC50 is 6.00 to 6.30

compound CN1CCN(c2cccc(-c3ccc4cnc(CNC(=O)c5ccc6c(c5)[C@](C)(C#N)COC6)cc4n3)n2)CC1 , pIC50 observed: 6.30 to 7.00

Please fill in: pIC50 reported for C[C@@]1(F)COCc2ncc(C(=O)NCc3cc4nc(-c5ccccc5)sc4cn3)cc21 = 6.00 to 6.30

Value of pIC50 reported for the compound C[C@@]1(C#N)COCc2ccc(C(=O)NCc3cc4nc(-c5cccc(C6(O)COC6)c5)ccc4cn3)cc21 is 6.00 to 6.30

Just so you know, measured pIC50 for COc1cc(-c2ccc3cnc(CNC(=O)c4ccc5c(c4)[C@](C)(C#N)COC5)cc3n2)ccn1 came out at 6.00 to 6.30

Data point: C[C@@]1(C#N)COCc2ccc(C(=O)NCc3cc(N4CCC[C@H](c5ccccc5)C4)ccn3)cc21 ; pIC50 = < 6.00

Entry C[C@@]1(C#N)COCc2ccc(C(=O)NCc3cc4nc(-c5cn(C6COC6)nc5OC(F)F)ccc4cn3)cc21 ; pIC50 = 6.30 to 7.00

Value of measured pIC50 for the entry C[C@@]1(C#N)COCc2c(F)cc(C(=O)NCc3cc4nc(-c5cncc(N6CCC6)n5)ccc4cn3)cc21 : 6.30 to 7.00

Field pIC50 (entry C[C@@]1(F)COCc2ccc(C(=O)NCc3cc4nc(-c5cccc(N6CCC6)n5)ccc4cn3)cc21 ) reads 6.30 to 7.00
